Taken from paper PMC3646166.

test: Extraction experiments, 1-octanol-water partition coefficient; type: physicochemical; conditions: 25 °C, read-out: Partition coefficient 1-octanol–water, P oc/w (converted)

{"columns": ["compound", "logP at 2 days"],
 "data": [
  ["O=c1c2ncn(COCCO)c2nc2[nH]c(-c3ccccc3)cn12", 0.545],
  ["COc1ccc(-c2cn3c(=O)c4ncn(COCCO)c4nc3[nH]2)cc1", 0.386],
  ["O=c1c2ncn(COCCO)c2nc2[nH]c(-c3ccc(-c4ccccc4)cc3)cn12", 0.491],
  ["O=c1c2ncn(COCCO)c2nc2[nH]c(-c3ccc(Br)cc3)cn12", 0.549],
  ["Nc1nc2c(ncn2COCCO)c(=O)[nH]1 [Compound 1, 9-[(2-hydroxyethoxy)methyl] guanine, reference compound]", -1.44],
  ["O=c1c2ncn(COCCO)c2nc2[nH]c(-c3ccc4ccccc4c3)cn12", 0.549],
  ["O=c1c2ncn(COCCO)c2nc2[nH]ccn12", -0.86],
  ["Cc1cn2c(=O)c3nc(Br)n(COCCO)c3nc2[nH]1", -0.108],
  ["CC(C)(C)c1cn2c(=O)c3ncn(COCCO)c3nc2[nH]1", 0.616]
]}

---

Experiment: Solubility in water or 1-octanol (saturated solutions, UV-Vis)
Type: physicochemical
Details: water, 45 °C, water, thermodynamic from solid; read-out: Aqueous solubility, C w
Protocol: The sample of substance examined (10 mg or 80 mg for 6-Me-TACV) was placed in a glass ampoule and double-distilled, deionized water (Millipore, Elix 5 purifier), or pure anhydrous 1-octanol (Sigma 99 %) was added. […] After the experiment was completed, the sample was centrifuged at 40,000 rpm for 40 min at 25 ± 0.1 °C, the supernatant liquid was collected, diluted, and its concentration determined with a UV–Vis (Varian Carry IE) spectrophotometer. […]
measurement_kind: solubility (µM)

{"columns": ["compound_structure", "measurement_kind", "test_value"],
 "data": [
  ["Cc1cn2c(=O)c3ncn(COCCO)c3nc2[nH]1", "solubility", 32400],
  ["O=c1c2ncn(COCCO)c2nc2[nH]c(-c3ccc4ccccc4c3)cn12", "solubility", 265],
  ["O=c1c2ncn(COCCO)c2nc2[nH]c(-c3ccc(Br)cc3)cn12", "solubility", 1280]
]}

---

assay: Solubility in buffered cyclodextrin solutions (excess method of Higuchi and Connors); format: physicochemical; conditions: buffered HP-β-CD solutions, pH = 7.0, 37 °C
measurement_kind: Correlation parameter b (Eq. 2, Cs = a + b·CCD)

{"columns": ["molecule", "test_value"],
 "data": [
  ["COc1ccc(-c2cn3c(=O)c4ncn(COCCO)c4nc3[nH]2)cc1 [Compound 11]", "1.30 × 10^−2"],
  ["O=c1c2ncn(COCCO)c2nc2[nH]c(-c3ccccc3)cn12 [Compound 8]", "3.60 × 10^−2"],
  ["O=c1c2ncn(COCCO)c2nc2[nH]ccn12 [Compound 4]", "2.56 × 10^−2"],
  ["Cc1cn2c(=O)c3nc(Br)n(COCCO)c3nc2[nH]1 [Compound 6]", "3.23 × 10^−2"],
  ["O=c1c2ncn(COCCO)c2nc2[nH]c(-c3ccc4ccccc4c3)cn12 [Compound 12]", "1.29 × 10^−2"]
]}

---

Assay: Solubility in buffered cyclodextrin solutions (excess method of Higuchi and Connors)
Assay type: physicochemical
Conditions: phosphate buffer, aqueous buffer, thermodynamic from solid; Buffer, pH = 5.5, 25 °C; read-out: Solubility, C 6-Ph-O-Me-TACV
Procedure: Solubilities of the studied compounds was ensured according to the excess method of Higuchi and Connors. […] After 7 days equilibrium was reached and then the suspensions were centrifuged and the absorbance of the studied compounds was measured by UV-Vis spectrophotometry using a Shimadzu UV 2401 PC Spectrometer equipped with a thermostatically controlled cell compartment. […]
measurement_kind: solubility at 7 days (µM)

{"columns": ["compound_structure", "measurement_kind", "test_value"],
 "data": [
  ["COc1ccc(-c2cn3c(=O)c4ncn(COCCO)c4nc3[nH]2)cc1", "solubility at 7 days", 48.2]
]}

---

test: Solubility in buffered cyclodextrin solutions (excess method of Higuchi and Connors); format: physicochemical; conditions: buffered HP-β-CD solutions, pH = 5.5, 37 °C
measurement_kind: Correlation parameter a (Eq. 2, Cs = a + b·CCD)

{"columns": ["compound_structure", "test_value"],
 "data": [
  ["O=c1c2ncn(COCCO)c2nc2[nH]c(-c3ccc4ccccc4c3)cn12", "3.37 × 10^−5"],
  ["O=c1c2ncn(COCCO)c2nc2[nH]c(-c3ccccc3)cn12", "3.27 × 10^−4"],
  ["Cc1cn2c(=O)c3nc(Br)n(COCCO)c3nc2[nH]1", "2.35 × 10^−3"],
  ["O=c1c2ncn(COCCO)c2nc2[nH]c(-c3ccc(-c4ccccc4)cc3)cn12", "5.03 × 10^−4"],
  ["O=c1c2ncn(COCCO)c2nc2[nH]ccn12", "5.15 × 10^−3"],
  ["COc1ccc(-c2cn3c(=O)c4ncn(COCCO)c4nc3[nH]2)cc1", "9.95 × 10^−5"]
]}

---

assay: Solubility in buffered cyclodextrin solutions (excess method of Higuchi and Connors); assay type: physicochemical; settings: organic solvent or mixture, thermodynamic from solid; 1-Octanol saturated with buffer, pH = 5.5, 37 °C; read-out: Solubility, C 6-Ph-O-Me-TACV
measurement_kind: solubility (µM)

{"columns": ["molecule", "measurement_unit", "test_value"],
 "data": [
  ["COc1ccc(-c2cn3c(=O)c4ncn(COCCO)c4nc3[nH]2)cc1 [Compound 11]", "µM", 741]
]}

---

assay: Solubility in buffered cyclodextrin solutions (excess method of Higuchi and Connors); type: physicochemical; details: buffered HP-β-CD solutions, pH = 5.5, 37 °C
Reported Correlation parameter b (Eq. 2, Cs = a + b·CCD) values are given for each entry in this list.
measurement_kind: Correlation parameter b (Eq. 2, Cs = a + b·CCD)

{"columns": ["compound_structure", "test_value"],
 "data": [
  ["O=c1c2ncn(COCCO)c2nc2[nH]ccn12", "2.72 × 10^−2"],
  ["Cc1cn2c(=O)c3nc(Br)n(COCCO)c3nc2[nH]1", "5.94 × 10^−2"],
  ["O=c1c2ncn(COCCO)c2nc2[nH]c(-c3ccccc3)cn12", "3.57 × 10^−2"],
  ["COc1ccc(-c2cn3c(=O)c4ncn(COCCO)c4nc3[nH]2)cc1", "1.41 × 10^−2"],
  ["O=c1c2ncn(COCCO)c2nc2[nH]c(-c3ccc(-c4ccccc4)cc3)cn12", "2.98 × 10^−2"],
  ["O=c1c2ncn(COCCO)c2nc2[nH]c(-c3ccc4ccccc4c3)cn12", "0.93 × 10^−2"]
]}

---

# reported Stability constant K s of HP-β-CD complex; entries follow
experiment: Solubility in buffered cyclodextrin solutions (excess method of Higuchi and Connors); type: physicochemical; conditions: pH = 7, 25 °C
measurement_kind: Stability constant K s of HP-β-CD complex

{"columns": ["molecule", "test_value"],
 "data": [
  ["Cc1cn2c(=O)c3nc(Br)n(COCCO)c3nc2[nH]1 [Compound 6]", "26 (±2) dm·mol^−1"],
  ["COc1ccc(-c2cn3c(=O)c4ncn(COCCO)c4nc3[nH]2)cc1 [Compound 11]", "189 (±6) dm·mol^−1"],
  ["O=c1c2ncn(COCCO)c2nc2[nH]c(-c3ccc4ccccc4c3)cn12 [Compound 12]", "311 (±9)"],
  ["O=c1c2ncn(COCCO)c2nc2[nH]c(-c3ccccc3)cn12 [Compound 8]", "107 (±8)"],
  ["O=c1c2ncn(COCCO)c2nc2[nH]ccn12 [Compound 4]", "8.0 (±1) dm·mol^−1"],
  ["O=c1c2ncn(COCCO)c2nc2[nH]c(-c3ccc(-c4ccccc4)cc3)cn12 [Compound 9]", "110 (±6) dm·mol^−1"]
]}

---

The entries below come with measured logP at 2 days values attached.
assay: Extraction experiments, 1-octanol-water partition coefficient; format: physicochemical; conditions: 25 °C, read-out: Partition coefficient 1-octanol–water, P oc/w (converted)

{"columns": ["molecule", "logP at 2 days"],
 "data": [
  ["Cc1cn2c(=O)c3ncn(COCCO)c3nc2[nH]1", -0.688],
  ["Nc1nc(O)c2ncn(COC(CO)CO)c2n1 [Compound 3, reference compound]", -1.77],
  ["Nc1nc2c(nc(Br)n2COCCO)c(=O)[nH]1", -0.264]
]}

---

test: Solubility in buffered cyclodextrin solutions (excess method of Higuchi and Connors); format: physicochemical; settings: phosphate buffer saturated with 1-octanol, aqueous buffer, thermodynamic from solid, pH = 7.0, 37 °C, read-out: Solubility, C 6-Ph-O-Me-TACV
measurement_kind: solubility at 7 days

{"columns": ["compound_structure", "test_value"],
 "data": [
  ["COc1ccc(-c2cn3c(=O)c4ncn(COCCO)c4nc3[nH]2)cc1", "139 µM"]
]}
